# targetUnderTest: RORγt (Homo sapiens)
# Sequence (P51449 1-497 isoform P51449-2): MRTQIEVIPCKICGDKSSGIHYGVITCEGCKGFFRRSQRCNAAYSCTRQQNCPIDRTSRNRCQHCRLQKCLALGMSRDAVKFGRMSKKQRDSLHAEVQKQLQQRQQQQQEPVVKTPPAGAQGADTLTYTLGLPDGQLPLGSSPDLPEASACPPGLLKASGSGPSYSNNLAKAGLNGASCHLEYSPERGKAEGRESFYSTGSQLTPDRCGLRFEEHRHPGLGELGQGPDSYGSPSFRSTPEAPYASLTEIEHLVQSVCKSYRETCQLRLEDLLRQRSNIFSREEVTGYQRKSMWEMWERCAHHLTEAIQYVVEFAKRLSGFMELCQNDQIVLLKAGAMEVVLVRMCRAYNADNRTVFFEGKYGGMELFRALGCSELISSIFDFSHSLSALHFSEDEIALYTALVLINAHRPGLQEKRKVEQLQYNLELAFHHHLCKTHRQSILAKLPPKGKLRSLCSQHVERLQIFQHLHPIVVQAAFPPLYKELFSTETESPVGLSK
# protocolText: Jurkat reporter test (human IL-17 ROR response element luciferase reporter, RORγt vector)
# Assay type: cell-based
# conditionLabel: test compound 3 μM; Jurkat cells; read-out: luminescence level inhibitory rate (%) at test compound 3 μM

{"columns": ["compound", "inhibition at 3 µM"],
 "data": [
  ["Cc1ccc(C(=O)N[C@@H]2CCCN(C(=O)Nc3ccc4c(c3)c(=O)n(CC3CC3)c(=O)n4C(C)C)C2)s1", "103%"],
  ["CC(C)n1c(=O)n(CC2CC2)c(=O)c2cc(NC(=O)N3CCO[C@@H](C(=O)Nc4cc(F)c(C#N)cc4F)C3)ccc21", "102%"],
  ["CC(C)n1c(=O)n(CC2CC2(F)F)c(=O)c2cc(NC(=O)N3CCO[C@@H](C(=O)Nc4ccc(C#N)c(Cl)c4)C3)c(F)cc21 (stereo partly shown)", "103%"],
  ["CC(C)n1c(=O)n(CC2CC2)c(=O)c2cc(NC(=O)N3CCC[C@@H](NC(=O)c4ccc(C#N)s4)C3)c(F)cc21", "101%"],
  ["CC(C)n1c(=O)n(CC2CC2)c(=O)c2cc(NC(=O)N3CCO[C@@H](C(=O)Nc4cnc(C#N)c(F)c4)C3)ccc21", "103%"],
  ["CC(C)n1c(=O)n(CC2CC(F)(F)C2)c(=O)c2cc(NC(=O)N3CCC[C@@H](n4cnc5cc(C#N)ccc5c4=O)C3)c(F)cc21", "107%"],
  ["COc1ccc(C(=O)N[C@@H]2CCCN(C(=O)Nc3cc4c(=O)n(CC5CC5)c(=O)n(C(C)C)c4cc3F)C2)c(F)c1", "101%"],
  ["CC(C)n1c(=O)n(CC2CC2)c(=O)c2cc(NC(=O)N3CCO[C@@H](C(=O)Nc4ccc(C#N)c(Cl)c4)C3)c(F)cc21", "103%"],
  ["CC(C)n1c(=O)n(CC2CC2)c(=O)c2cc(NC(=O)N3CCCC(NC(=O)c4ccc(C#N)nc4)C3)ccc21 (stereo not shown)", "102%"],
  ["CC(C)n1c(=O)n(CC2CC2)c(=O)c2cc(NC(=O)N3CCC[C@@H](NC(=O)c4ccc(CNC(=O)OC(C)(C)C)cc4)C3)ccc21", "101%"]
]}

---

# targetUnderTest: RORγt (Homo sapiens)
# Sequence (P51449 1-497 isoform P51449-2): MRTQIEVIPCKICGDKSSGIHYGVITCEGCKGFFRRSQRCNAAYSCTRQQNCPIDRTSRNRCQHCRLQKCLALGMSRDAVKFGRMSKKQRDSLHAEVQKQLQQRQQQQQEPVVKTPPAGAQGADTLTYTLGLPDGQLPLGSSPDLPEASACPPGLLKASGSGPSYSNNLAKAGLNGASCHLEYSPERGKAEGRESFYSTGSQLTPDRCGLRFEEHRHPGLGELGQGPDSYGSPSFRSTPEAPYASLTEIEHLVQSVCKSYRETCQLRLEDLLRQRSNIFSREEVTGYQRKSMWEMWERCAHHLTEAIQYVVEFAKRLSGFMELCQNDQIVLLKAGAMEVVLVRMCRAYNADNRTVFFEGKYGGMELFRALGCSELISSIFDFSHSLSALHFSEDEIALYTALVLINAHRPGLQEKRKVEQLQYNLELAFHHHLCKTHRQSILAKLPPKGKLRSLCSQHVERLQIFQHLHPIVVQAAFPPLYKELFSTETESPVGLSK
# protocolText: RORγt binding test using fluorescent-labeled synthetic ligand (TR-FRET)
# conditionLabel: test compound 1 μM; read-out: binding inhibitory rate (%) of fluorescent-labeled synthetic ligand to RORγt at test compound 1 μM

{"columns": ["compound", "displayUnit", "inhibition at 1 µM"],
 "data": [
  ["CC(C)n1c(=O)n(CC2CC2)c(=O)c2cc(NC(=O)N3CCC[C@@H](NC(=O)c4ccc(C#N)cc4)C3)ccc21 [Example 218]", "%", 102],
  ["COC(=O)N1Cc2ccc(C(=O)N[C@@H]3CCCN(C(=O)Nc4cc5c(=O)n(CC6CC6)c(=O)n(C(C)C)c5cc4F)C3)cc2C1 [Example 343]", "%", 101],
  ["CC(C(F)F)n1c(=O)n(CC2CC2)c(=O)c2cc(NC(=O)N3CCCC(n4cnc5cc(C#N)ccc5c4=O)C3)c(F)cc21 (stereo not drawn) [Example 372]", "%", 101],
  ["CC(C)n1c(=O)n(CC2CC(F)(F)C2)c(=O)c2cc(NC(=O)N3CCC[C@@H](n4cnc5cc(C#N)ccc5c4=O)C3)c(F)cc21 [Example 363]", "%", 102],
  ["CC(C)n1c(=O)n(CC2CC(F)(F)C2)c(=O)c2cc(NC(=O)N3CCO[C@@H](C(=O)Nc4ccc(C#N)c(Cl)c4)C3)c(F)cc21 [Example 350]", "%", 102],
  ["CC(C)n1c(=O)n(CC2CC2)c(=O)c2cc(NC(=O)N3CCNC(C(=O)Nc4ccc(C#N)c(Cl)c4)C3)ccc21 (stereo not drawn) [Example 82]", "%", 101]
]}

---

inhibition at 1 µM reference
# targetUnderTest: UniProtKB P51449
# protocolText: RORγt binding test using fluorescent-labeled synthetic ligand (TR-FRET)
# conditionLabel: test compound 1 μM; read-out: binding inhibitory rate (%) of fluorescent-labeled synthetic ligand to RORγt at test compound 1 μM

{"columns": ["molecule", "displayUnit", "inhibition at 1 µM"],
 "data": [
  ["COC(=O)NCc1ccc(C(=O)N[C@@H]2CCCN(C(=O)Nc3cc4c(=O)n(CC5CC5)c(=O)n(C(C)C)c4cc3F)C2)cc1", "%", 101],
  ["COc1ccc(C(=O)N[C@@H]2CCCN(C(=O)Nc3ccc4c(c3)c(=O)n(CC3CC3)c(=O)n4C(C)C)C2)cc1", "%", 102],
  ["CC(C)n1c(=O)n(CC2CC2)c(=O)c2cc(NC(=O)N3CCC[C@@H](NC(=O)c4cccc(Cl)c4)C3)ccc21", "%", 102],
  ["CC(C)n1c(=O)n(CC2CC2(F)F)c(=O)c2cc(NC(=O)N3CCCC(n4cnc5cc(C#N)ccc5c4=O)C3)c(F)cc21 (single isomer, unassigned) [Example 367]", "%", 102],
  ["CC(C)n1c(=O)n(CC2CC2)c(=O)c2cc(NC(=O)N3CCOC(C(=O)Nc4ccc(C#N)c(F)c4)C3)ccc21 (stereo not drawn)", "%", 101],
  ["CC(C)n1c(=O)n(CC2CC2)c(=O)c2cc(NC(=O)N3CCC[C@@H](NC(=O)c4cc(Cl)ccc4F)C3)c(F)cc21", "%", 102]
]}

---

Each entry below carries its recorded inhibition at 1 µM.
# targetUnderTest: RORγt (Homo sapiens)
# protocolText: Cofactor recruitment test (Alpha Screen, biotinylated SRC-1 peptide)
# Format: biochemical
# conditionLabel: read-out: signal value inhibitory rate (%) at test compound 1 μM

{"columns": ["compound", "targetUnderTest", "displayUnit", "inhibition at 1 µM"],
 "data": [
  ["CC(C)n1c(=O)n(CC2CC2)c(=O)c2cc(NC(=O)N3CCO[C@@H](C(=O)Nc4cnc(C#N)c(Cl)c4)C3)c(F)cc21", "RORγt (Homo sapiens)", "%", 108],
  ["CC(C)n1c(=O)n(CC2CC(F)(F)C2)c(=O)c2cc(NC(=O)N3CCO[C@@H](C(=O)Nc4cc(Cl)c(C#N)cc4F)C3)c(F)cc21", "RORγt (Homo sapiens)", "%", 108],
  ["CC(C)n1c(=O)n(CC2CC2)c(=O)c2cc(NC(=O)N3CCC[C@@H](NC(=O)c4ccc5c(c4)CCN(C(=O)OC(C)(C)C)C5)C3)c(F)cc21", "RORγt (Homo sapiens)", "%", 92],
  ["CC(C)n1c(=O)n(CC2CC2(F)F)c(=O)c2cc(NC(=O)N3CCOC(C(=O)Nc4cnc(C#N)c(Cl)c4)C3)c(F)cc21 (mixture of isomers)", "RORγt (Homo sapiens)", "%", 108],
  ["CC(C)n1c(=O)n(CC2CCCO2)c(=O)c2cc(NC(=O)N3CCO[C@@H](C(=O)Nc4ccc(C#N)c(Cl)c4)C3)c(F)cc21 (stereo partly drawn)", "RORγt (Homo sapiens)", "%", 107],
  ["CC(C)n1c(=O)n(C[C@@H]2CCCO2)c(=O)c2cc(NC(=O)N3CCO[C@@H](C(=O)Nc4ccc(C#N)c(Cl)c4)C3)c(F)cc21", "RORγt (Homo sapiens)", "%", 107]
]}

All values here come from patent US10000488B2.
